System: Bifidobacterium longum subsp. longum
Assay Text: growth AUC relative to DMSO control (median of replicates) (fraction); higher = more growth (less inhibition), active = hit call of the paper
Condition Parameters: 20 µM; 24 h

Compound	Target Of Assay	growth AUC
CCOP(=O)(OCC)O/C(=C/Br)c1ccc(Cl)cc1Cl	Bifidobacterium longum subsp. longum	0.991
O=C(O)COc1ccc(Cl)cc1Cl	Bifidobacterium longum subsp. longum	1
COc1cc(C)c(C(=O)c2c(OC)ccc(Br)c2C)c(OC)c1OC	Bifidobacterium longum subsp. longum	0.885
CNC(=O)O/N=C(\C)C(C)S(C)=O (configuration not stated)	Bifidobacterium longum subsp. longum	0.996
CSc1nc(N=[N+]=[N-])nc(NC(C)C)n1	Bifidobacterium longum subsp. longum	0.849
C1=Cc2cccc3cccc1c23	Bifidobacterium longum subsp. longum	0.946
CC[C@H]1CCCC(O[C@H]2CC[C@H](N(C)C)[C@@H](C)O2)[C@@H](C)C(=O)C2=C[C@@H]3[C@@H](C=C(C)[C@@H]4C[C@@H](O[C@@H]5O[C@@H](C)[C@H](OC)[C@@H](OC)[C@H]5OC)C[C@@H]34)[C@@H]2CC(=O)O1.CC[C@H]1CCCC(O[C@H]2CC[C@H](N(C)C)[C@@H](C)O2)[C@@H](C)C(=O)C2=C[C@@H]3[C@@H](C=C[C@@H]4C[C@@H](O[C@@H]5O[C@@H](C)[C@H](OC)[C@@H](OC)[C@H]5OC)C[C@@H]34)[C@@H]2CC(=O)O1 (some centres not stated)	Bifidobacterium longum subsp. longum	0.889

###

System: Bifidobacterium longum subsp. longum
Assay Text: growth AUC relative to DMSO control (median of replicates) (fraction); higher = more growth (less inhibition), active = hit call of the paper;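 active = AUC reduced over 20% with Padj below 0.05 in at least 2 of 3 replicates; inactive = otherwise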
Condition Parameters: 20 µM; 24 h
Possible outcomes: true (1) for active, false (0) for inactive

Molecule	Target Of Assay	Assigned Label
CCS(=O)(=O)Oc1ccc2c(c1)C(C)(C)CO2	Bifidobacterium longum subsp. longum	false (0)
OCC1C(CO)C2(Cl)C(Cl)=C(Cl)C1(Cl)C2(Cl)Cl (stereo not given)	Bifidobacterium longum subsp. longum	false (0)
CC(C)Nc1nc(Cl)nc(NC(C)C)n1	Bifidobacterium longum subsp. longum	false (0)
OC[C@@H](O)[C@H]1O[C@@H]2O[C@H](C(Cl)(Cl)Cl)O[C@@H]2[C@H]1O (mixture of isomers)	Bifidobacterium longum subsp. longum	false (0)
CCOP(=S)(OCC)SCS(=O)C(C)(C)C (stereo not given)	Bifidobacterium longum subsp. longum	false (0)
CCCCOC(=O)[C@@H](C)Oc1ccc(Oc2ccc(C#N)cc2F)cc1	Bifidobacterium longum subsp. longum	false (0)
CCN(CC)C(=O)/C(Cl)=C(/C)OP(=O)(OC)OC	Bifidobacterium longum subsp. longum	false (0)
O=c1c2cc(F)ccc2nc(-n2cncn2)n1-c1ccc(Cl)cc1Cl	Bifidobacterium longum subsp. longum	false (0)
Oc1ccccc1Cl	Bifidobacterium longum subsp. longum	false (0)
O=P(Oc1ccccc1)(Oc1ccccc1)Oc1ccccc1	Bifidobacterium longum subsp. longum	false (0)
CC(C)=CC1C(C(=O)OCc2cccc(Oc3ccccc3)c2)C1(C)C (mixture of isomers)	Bifidobacterium longum subsp. longum	false (0)
Nc1ccc(Cc2ccc(N)c(Cl)c2)cc1Cl	Bifidobacterium longum subsp. longum	false (0)
CCOP(=O)(NC(C)C)Oc1ccc(S(C)=O)c(C)c1 (stereo not given)	Bifidobacterium longum subsp. longum	false (0)
C[Si](Cn1cncn1)(c1ccc(F)cc1)c1ccc(F)cc1	Bifidobacterium longum subsp. longum	false (0)
Cc1cnc(C2=NC(C)(C(C)C)C(=O)N2)c(C(=O)O)c1 (stereo not given)	Bifidobacterium longum subsp. longum	false (0)
Cc1nc(N(C)C)nc(OC(=O)N(C)C)c1C	Bifidobacterium longum subsp. longum	false (0)
COP(=S)(OC)SCN1C(=O)c2ccccc2C1=O	Bifidobacterium longum subsp. longum	false (0)
CCC(C)(C)C(=O)OC1=C(c2ccc(Cl)cc2Cl)C(=O)OC12CCCCC2	Bifidobacterium longum subsp. longum	false (0)
CC(C)(O)C(Cl)(Cl)Cl.CC(C)(O)C(Cl)(Cl)Cl.O	Bifidobacterium longum subsp. longum	false (0)
Nc1ccncc1	Bifidobacterium longum subsp. longum	false (0)
O=c1oc2ccccc2c(O)c1C1CC(c2ccc(OCc3ccc(C(F)(F)F)cc3)cc2)Cc2ccccc21 (mixture of isomers)	Bifidobacterium longum subsp. longum	true (1)
Clc1cc(Cl)c(Cl)cc1Cl	Bifidobacterium longum subsp. longum	false (0)
Oc1ccc(Cl)cc1Cl	Bifidobacterium longum subsp. longum	false (0)
Nc1nc(N)nc(NC2CC2)n1	Bifidobacterium longum subsp. longum	false (0)
COP(=S)(OC)SCn1nnc2ccccc2c1=O	Bifidobacterium longum subsp. longum	false (0)
Oc1ccc(C(c2ccc(O)cc2)(C(F)(F)F)C(F)(F)F)cc1	Bifidobacterium longum subsp. longum	false (0)
Cc1cccc(C)c1N	Bifidobacterium longum subsp. longum	false (0)
CCOP(=S)(OCC)Oc1cnc2ccccc2n1	Bifidobacterium longum subsp. longum	false (0)
COP(=O)(OC)O/C(=C\Cl)c1ccc(Cl)cc1Cl	Bifidobacterium longum subsp. longum	false (0)
CCNS(=O)(=O)C(F)(F)C(F)(F)C(F)(F)C(F)(F)C(F)(F)C(F)(F)C(F)(F)C(F)(F)F	Bifidobacterium longum subsp. longum	false (0)
ClC(Cl)=C(c1ccc(Cl)cc1)c1ccc(Cl)cc1	Bifidobacterium longum subsp. longum	false (0)
CCCC(Cn1cncn1)c1ccc(Cl)cc1Cl (stereo not given)	Bifidobacterium longum subsp. longum	false (0)
CC(C)OC(=O)C(C(=O)OC(C)C)=C1SCCS1	Bifidobacterium longum subsp. longum	false (0)
Cc1ccccc1[N+](=O)[O-]	Bifidobacterium longum subsp. longum	false (0)
COc1cc(OC)nc(NC(=O)[N-]S(=O)(=O)c2ncccc2OCC(F)(F)F)n1.[Na+]	Bifidobacterium longum subsp. longum	false (0)
